These entries and their values trace back to paper PMC7356696.

- Test system: Staphylococcus aureus ATCC 29213
- assay info: Agar well diffusion, inhibition zone
- Type: cell-based
- Design: dose or concentration left out as unconfirmed
- applied conditions: ATCC29213, S. aureus ATCC 29213, NA = No Activity, read-out: Mean Diameter of Inhibition Zone (Mean ± SEM)
Class assignment keyed on zone of inhibition, ranges bin A = under 20 mm, bin B = from 20 mm up to 30 mm, bin C = 30 mm and over

>  <compound>
N#CCc1nnc(NC(=O)Cc2ccccc2)s1 [Compound 10]

>  <category>
bin A

$$$$
>  <compound>
O=C(Cc1ccccc1)NC(=S)N1NC(=O)C(=Cc2ccccc2)N=C1c1ccccc1 [Compound 12]

>  <category>
bin B

$$$$
>  <compound>
O=c1cc2nc(Cc3ccccc3)[nH]c(=S)n2[nH]1 [Compound 9]

>  <category>
bin B

$$$$
>  <compound>
O=C(O)c1cn(C2CC2)c2cc(N3CCNCC3)c(F)cc2c1=O [Ciprofloxacin, reference compound]

>  <category>
bin B

$$$$

Dear colleague, I would appreciate it if you could identify the bin for CCOC(=O)CNC(=S)NC(=O)Cc1ccccc1 [Compound 2] and reply at your convenience. bin A

Next compound: N=c1oc2ccccc2cc1-c1nnc(NC(=O)Cc2ccccc2)s1 [Compound 11] bin A

Next compound: O=C(Cc1ccccc1)NC(=S)NN1C(=O)C(=Cc2ccccc2)N=C1c1ccccc1 [Compound 6] bin B

Next compound: O=C(Cc1ccccc1)NC(=S)NNC(=O)C(=Cc1cccs1)NC(=O)c1ccccc1 [Compound 7b] bin C

Next compound: N#CCC(=O)NNC(=S)NC(=O)Cc1ccccc1 [Compound 8] bin C

Next compound: O=C(Cc1ccccc1)Nc1nnc(C(=Cc2cccs2)NC(=O)c2ccccc2)s1 [Compound 13] bin B

---

- assay info: MTT assay for cytotoxic activity
- Type: cell-based
- applied conditions: African green monkey, Vero cells (normal kidney epithelial cell line), read-out: IC50 (Mean ± SEM), cytotoxic activity
pIC50: −log10 of the molar value.
We use 4 as the dividing line for pIC50: on or above the line is Satisfied, below is Not satisfied.

>  <smiles notation>
O=C(Cc1ccccc1)NC(=S)NNC(=O)C(=Cc1cccs1)NC(=O)c1ccccc1

>  <category>
Not satisfied

$$$$
>  <smiles notation>
N#CCC(=O)NNC(=S)NC(=O)Cc1ccccc1

>  <category>
Not satisfied

$$$$
>  <smiles notation>
O=C(Cc1ccccc1)NC(=S)NNC(=O)C(=Cc1ccccc1)NC(=O)c1ccccc1

>  <category>
Not satisfied

$$$$

API: the following record is the query input.
Check this molecule for pIC50 at or above 4: `O=c1cc2nc(Cc3ccccc3)[nH]c(=S)n2[nH]1` Satisfied

---

- Tested on: Pseudomonas aeruginosa ATCC 27853
- assay info: MIC, modified agar well diffusion method
- Format: cell-based
- applied conditions: ATCC27853, P. aeruginosa ATCC 27853, read-out: MIC (Mean ± SEM)
Measured log10 MIC by item
In our notation, the value equals log10 of MIC in µg/mL.

May I ask what log10 MIC has been recorded for `N#CCC(=O)NNC(=S)NC(=O)Cc1ccccc1` ? 0.10

Next compound: `O=C(Cc1ccccc1)NC(=S)NN1C(=O)C(=Cc2ccccc2)N=C1c1ccccc1` 0.39

Next compound: `O=C(Cc1ccccc1)NC(=S)NNC(=O)C(=Cc1ccccc1)NC(=O)c1ccccc1` 0.45
